- STUDY SYSTEM: aromatase (Rattus norvegicus)
- Construct: ovarian microsomes are obtained from rats treated with pregnant mares serum gonadotropin
- Sequence (P22443 whole entry): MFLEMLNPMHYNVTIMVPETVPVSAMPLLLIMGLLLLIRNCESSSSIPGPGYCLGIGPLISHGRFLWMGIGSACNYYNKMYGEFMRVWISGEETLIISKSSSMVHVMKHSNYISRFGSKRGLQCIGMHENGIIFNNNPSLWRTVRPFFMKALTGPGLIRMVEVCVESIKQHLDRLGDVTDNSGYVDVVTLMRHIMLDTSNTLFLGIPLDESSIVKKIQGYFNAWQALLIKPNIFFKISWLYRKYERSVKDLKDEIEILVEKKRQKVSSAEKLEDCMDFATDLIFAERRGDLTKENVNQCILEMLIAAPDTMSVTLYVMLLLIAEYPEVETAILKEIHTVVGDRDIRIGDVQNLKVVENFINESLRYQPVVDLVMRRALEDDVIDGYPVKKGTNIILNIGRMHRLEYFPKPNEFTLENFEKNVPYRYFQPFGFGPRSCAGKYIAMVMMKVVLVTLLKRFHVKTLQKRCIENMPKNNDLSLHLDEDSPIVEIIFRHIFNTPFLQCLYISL
- TEST PROTOCOL: Aromatase inhibition in the rat ovarian microsome assay
- CONDITIONS: EC50: concentration required to achieve 50% inhibition of aromatase activity, substrate (androstenedione) concentration 0.1 μM
Where a name gives a salt, the structure may show the parent alone.
PROPERTY MEASURED: pEC50
Schema: pEC50 number; meaning minus log10 of the concentration expressed in molar units.

IN: What does the record list as pEC50 for `c1ccc(C(c2ccccc2)(c2cccc3ccccc23)n2ccnc2)cc1` ?
OUT: 7.02

IN: Okay, and Clc1ccc(Cl)c(Cn2ccnc2)c1 [hydrochloride] ?
OUT: 6.80

IN: Then `Fc1ccc(C(c2ccccc2)(c2ccc(F)cc2)n2cncn2)cc1` ?
OUT: 7.10

IN: What about this molecule? FC(F)(F)c1cccc(C(c2ccc(Cl)cc2)(c2cccnc2)n2cncn2)c1 (stereo not drawn)
OUT: 7.01

IN: Again, but for CCOc1ccccc1C(CC)n1ccnc1 (stereo not drawn)
OUT: 6.85

Continue with the next molecule.
IN: Dear colleague, I am looking for the recorded pEC50 of the following molecule: `c1ccc(CCOc2ccccc2Cn2ccnc2)cc1`
OUT: 7.07

Source of measurements: patent US4755526A
